Test system: SK-LU-1
Measurement notes: CellTiter-Glo cell viability, IC50 determination
Format: cell-based
Test parameters: Homo sapiens, 72 h; SK-LU-1 cell line; 3-day CTG assay; read-out: Absolute IC50
Outcome measure: IC50 (µM)
Answers are plain numbers, in µM.

Could you please provide reported IC50 for O=C(Nc1ccc2[nH]nc(-c3ccncc3)c2c1)[C@@H]1CCN(CC(=O)N2CCN(c3ccc(-c4ncccn4)cc3)CC2)C1 ? Thanks!
4.69

====

Tested on: NCI-H1703
Measurement notes: CellTiter-Glo cell viability, IC50 determination
Assay type: cell-based
Test parameters: Homo sapiens, 72 h; NCI-H1703 cell line; 3-day CTG assay; read-out: Absolute IC50
Outcome measure: pIC50
Answers are plain numbers, as −log10 of the molar value.

Specify the recorded pIC50 for CC(=O)Nc1cccc(-n2c(=O)n(C3CC3)c(=O)c3c(Nc4ccc(I)cc4F)n(C)c(=O)c(C)c32)c1 , system: NCI-H1703.
4.82

====

System: Sk-Mel-5
Measurement notes: CellTiter-Glo cell viability, IC50 determination
Assay type: cell-based
Test parameters: Homo sapiens, 72 h; Sk-Mel-5 cell line; 3-day CTG assay; read-out: Absolute IC50
Outcome measure: pIC50
One number for each entry, as −log10 of the molar value.

CC(=O)Nc1cccc(-n2c(=O)n(C3CC3)c(=O)c3c(Nc4ccc(I)cc4F)n(C)c(=O)c(C)c32)c1: 8.00

We now examine a further molecule.
Could you please provide reported pIC50 for O=C(Nc1ccc2[nH]nc(-c3ccncc3)c2c1)[C@@H]1CCN(CC(=O)N2CCN(c3ccc(-c4ncccn4)cc3)CC2)C1 ? Thanks!
6.70
